# Test system: Clostridium sporogenes DSM 1664
# test.name: growth (OD595) fold change vs plate DMSO controls (fold change (ratio)); higher = more growth
# conditions.used: incubation time: 27 h, anaerobic, 37 °C
Where a name gives a salt, the structure may show the parent alone.
Is growth at least 1? Then criterion met. If not, criterion not met.

| molecule | class |
| --- | --- |
| CC(/C=C1\SC(=S)N(CC(=O)O)C1=O)=C\c1ccccc1 [Epalrestat] (20 µM) | criterion met |
| CN(C)[C@@H]1C(=O)C(C(N)=O)=C(O)[C@@]2(O)C(=O)C3=C(O)c4c(O)ccc(Cl)c4[C@@H](O)[C@H]3C[C@@H]12 [Demeclocycline hydrochloride] (20 µM) | criterion not met |

Entry COC(=O)C1=C(C)NC(C)=C(C(=O)OC(C)C)C1c1cccc2nonc12 (configuration not stated) [Isradipine] (20 µM) : is its growth no less than 1?
criterion not met

Would you mind doing CC1(C)O[C@@H]2C[C@H]3[C@@H]4C[C@H](F)C5=CC(=O)C=C[C@]5(C)[C@H]4[C@@H](O)C[C@]3(C)[C@]2(C(=O)CO)O1 [Flunisolide] (20 µM) as well?
criterion not met

Would you mind doing CC(C)[C@H](N)C(=O)OCCOCn1cnc2c(=O)nc(N)[nH]c21 [Valacyclovir hydrochloride] (20 µM) as well?
criterion met

Would you mind doing O=c1cc(-c2ccc(O)c(O)c2)oc2cc(O)cc(O)c12 [Luteolin] (20 µM) as well?
criterion not met
